# ASSAY TARGET: T1, cynomolgus EpCAM protein (cynomolgus monkey)
# T1 construct: biotinylated in the Octet assays; also called cy EpCAM; cynomolgus monkey EpCAM
# T1 sequence (Q1WER1 24-265): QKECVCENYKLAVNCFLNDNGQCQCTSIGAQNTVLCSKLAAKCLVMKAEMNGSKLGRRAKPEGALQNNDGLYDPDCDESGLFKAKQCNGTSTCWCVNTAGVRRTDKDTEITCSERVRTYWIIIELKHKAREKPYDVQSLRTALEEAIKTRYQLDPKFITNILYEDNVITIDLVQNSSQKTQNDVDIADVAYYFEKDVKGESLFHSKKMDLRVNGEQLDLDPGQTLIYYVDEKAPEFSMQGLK
# ASSAY EXPLANATION: colorimetric ELISA
Quick reference for Cynomolgus EpCAM/Control among some binders
Please respond with the number in ratio and leave the unit unwritten.

// worked examples, Cynomolgus EpCAM/Control included
- BINDER: "Llama anti-EpCAM single domain antibody EPL138 (VHH, E. coli periplasmic extract) VHH: QVQLQESGGGLVQAGGSLRLSCAASGFIFRAASMDWYRQFPGNERESIATISSGGFTNYADSVKGRFTISRDNAKNTVYLQMNSLKPEDTAVYFCGATFLRSDGHHTINGQGTQVTVSS"
  Cynomolgus EpCAM/Control [ratio]: 3
- BINDER: "Llama anti-EpCAM single domain antibody EPL129 (VHH, E. coli periplasmic extract) VHH: QVQLQESGGGLVQAGGSLRLSCAASGFAFGNHWMYWYRQAPGRGRELVASISSGGSTNYVDSVKGRFTISRDNARNTVYLQMYSLRPEDTAVYYCGTSDNWGQGTQVTVSS"
  Cynomolgus EpCAM/Control [ratio]: 29
- BINDER: "Llama anti-EpCAM single domain antibody EPL152 (VHH, E. coli periplasmic extract) VHH: QVQLQESGGGLVQAGGSLRLSCVHSGSIFRASTMAWYRQAPGKQRELVAQIMSGGGTNYAGSVKGRFTISRDNANNTVYLQMNSLKPEDTAVYYCNAAQITSWGPKVYWGQGTQVTVSS"
  Cynomolgus EpCAM/Control [ratio]: 4

# evaluate next
The value of Cynomolgus EpCAM/Control measured for the binder Llama anti-EpCAM single domain antibody EPL58 (VHH, E. coli periplasmic extract) VHH: QVQLQESGGGLVQAGGSLRLSCAASGPIFSDTIRTMGWYRQAAGKQRELVATIASFPSRTNYVDSVKGRFTISRDIAKNTVYLQMDSLKPEDTAVYYCNVDLASIPTKTYWGQGTQVTVSS turned out to be 4
